# tested-system: HDAC1 (Homo sapiens (Human), UniProt Q13547)
# Sequence (Q13547 whole entry): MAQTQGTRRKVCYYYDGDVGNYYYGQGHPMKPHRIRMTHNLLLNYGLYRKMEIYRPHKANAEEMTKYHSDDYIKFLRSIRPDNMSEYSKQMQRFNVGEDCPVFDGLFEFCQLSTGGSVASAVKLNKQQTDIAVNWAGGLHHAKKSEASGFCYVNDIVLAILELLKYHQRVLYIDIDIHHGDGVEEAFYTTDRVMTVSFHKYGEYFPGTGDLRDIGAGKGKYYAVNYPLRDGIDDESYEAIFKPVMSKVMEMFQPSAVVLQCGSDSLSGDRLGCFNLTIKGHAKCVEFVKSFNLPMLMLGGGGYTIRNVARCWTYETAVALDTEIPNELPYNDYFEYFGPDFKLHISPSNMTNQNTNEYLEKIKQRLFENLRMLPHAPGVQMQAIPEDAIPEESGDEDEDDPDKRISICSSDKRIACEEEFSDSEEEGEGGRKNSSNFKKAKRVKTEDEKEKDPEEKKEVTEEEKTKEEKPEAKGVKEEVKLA
# protocol-details: Reporter displacement assay (HDAC1)
# Format: binding
# binarize residence time: threshold 600 min inclusive, high side y, low side n

molecule | class-name
Nc1ccc(-c2cc(F)c(F)c(F)c2)cc1NC(=O)N1Cc2ccncc2C1 | y

Problem: In plain terms: is recorded residence time at least 600 min for Cn1cc(-c2ccc(N)c(NC(=O)N3Cc4ccncc4C3)c2)cn1 ?
Solution: y

Problem: In plain terms: is recorded residence time at least 600 min for Nc1ccc(-c2ccc(OC(F)F)cc2)cc1NC(=O)N1Cc2ccncc2C1 ?
Solution: y

Problem: In plain terms: is recorded residence time at least 600 min for Nc1ccc(-c2ccc(F)cc2)cc1NC(=O)N1CC2(CCOCC2)C1 ?
Solution: n

Problem: In plain terms: is recorded residence time at least 600 min for CC(C)OC(=O)N1CC2CN(C(=O)Nc3cc(-c4ccc(F)cc4)ccc3N)CC2C1 (centres unmarked) ?
Solution: y

Problem: In plain terms: is recorded residence time at least 600 min for Nc1ccc(-c2ccc(F)cc2)cc1NC(=O)N1CCC2(CCN(CCF)C2)CC1 ?
Solution: y

Problem: In plain terms: is recorded residence time at least 600 min for CC(C)(C)OC(=O)N1C2CCC1CN(C(=O)Nc1cc(-c3ccc(F)cc3)ccc1N)C2 ?
Solution: n

Problem: In plain terms: is recorded residence time at least 600 min for CC(C)COC(=O)N1CC2CN(C(=O)Nc3cc(-c4ccc(F)cc4)ccc3N)CC2C1 (centres unmarked) ?
Solution: y

Problem: In plain terms: is recorded residence time at least 600 min for CC(C)CC(=O)N1CC2CN(C(=O)Nc3cc(-c4ccc(F)cc4)ccc3N)CC2C1 (centres unmarked) ?
Solution: y

Problem: In plain terms: is recorded residence time at least 600 min for CN1CC2CN(C(=O)Nc3cc(-c4ccncc4)ccc3N)CC2C1=O (centres unmarked) ?
Solution: n

Problem: In plain terms: is recorded residence time at least 600 min for Nc1ccc(-c2ccc(F)cc2)cc1NC(=O)N1CC2(CCNCC2)C1 ?
Solution: n

Problem: In plain terms: is recorded residence time at least 600 min for COC(=O)N1CC2CN(C(=O)Nc3cc(-c4ccc(F)cc4)ccc3N)CC2C1 (centres unmarked) ?
Solution: y

Problem: In plain terms: is recorded residence time at least 600 min for Nc1ccc(-c2ccc(F)cc2)cc1NC(=O)c1cn2c(n1)CCCC2 ?
Solution: y

Problem: In plain terms: is recorded residence time at least 600 min for CC(C)(C)OC(=O)N1CCC2(CC1)CN(C(=O)Nc1cc(-c3ccc(F)cc3)ccc1N)C2 ?
Solution: n

Problem: In plain terms: is recorded residence time at least 600 min for N#Cc1ccc(-c2ccc(N)c(NC(=O)N3Cc4ccncc4C3)c2)cc1 ?
Solution: n

Problem: In plain terms: is recorded residence time at least 600 min for CC(C)(C)OC(=O)N1CCC2CN(C(=O)Nc3cc(-c4ccc(F)cc4)ccc3N)CC2C1 (centres unmarked) ?
Solution: y

Provenance of the data: patent US10421756B2
